- Target Or Test System: AR protein in VCaP cells (Homo sapiens, UniProt P10275)
- Construct: endogenous in cells; host or cells: VCaP cells
- Protocol Notes: VCAP AR Degradation Assay (AR ELISA, 24 h)
- Type: cell-based
- Condition Set: AR degradation efficiency
Reported Endpoint: Y (lowest measured AR level normalized to DMSO control)

Molecule | Result Value
CCc1cc(N2C(=S)N(c3ccc(C#N)c(C(F)(F)F)c3)C(=O)C2(C)C)ccc1OCCC1CCN(CC(=O)Nc2cc(C#N)cc(NC3CCC(=O)NC3=O)c2)CC1 (stereo not drawn) | ** (25%<Y<=35%)
CC1(C)C(=O)N(c2cnc(C#N)c(C(F)(F)F)c2)C(=S)N1c1ccc(OCC2CCN(CC(=O)Nc3cccc(NC4CCC(=O)NC4=O)c3)CC2)c(Cl)c1 (stereo not drawn) | ** (25%<Y<=35%)
CCc1cc(N2C(=S)N(c3ccc(C#N)c(C(F)(F)F)c3)C(=O)C2(C)C)ccc1OCCC1CCN(CC(=O)Nc2cccc(NC3CCC(=O)NC3=O)c2)CC1 (stereo not drawn) | * (0<Y<=25%)
CCc1cc(N2C(=S)N(c3cnc(C#N)c(C(F)(F)F)c3)C(=O)C2(C)C)ccc1OCC[C@H]1C[C@H]2CC[C@@H](C1)N2CC(=O)Nc1cccc(NC2CCC(=O)NC2=O)c1 (stereo partly drawn) | * (0<Y<=25%)
CCc1cc(N2C(=S)N(c3cnc(C#N)c(C(F)(F)F)c3)C(=O)C2(C)C)ccc1OCC[C@H]1CCN(CC(=O)Nc2cccc(NC3CCC(=O)NC3=O)c2)[C@H](C)C1 (stereo partly drawn) | * (0<Y<=25%)
C[C@H](C(=O)Nc1cccc(NC2CCC(=O)NC2=O)c1)N1CCC(CCOc2ccc(N3C(=S)N(c4cnc(C#N)c(C(F)(F)F)c4)C(=O)C3(C)C)cc2CCF)CC1 (stereo partly drawn) | * (0<Y<=25%)

Input line: Need Y (lowest measured AR level normalized to DMSO control) of CCc1cc(N2C(=S)N(c3ccc(C#N)c(C(F)(F)F)c3)C(=O)C2(C)C)ccc1OCCC1CCN([C@@H](C)C(=O)Nc2cccc(NC3CCC(=O)NC3=O)c2)CC1 (stereo partly drawn) , thanks.
Output line: * (0<Y<=25%)

Input line: Need Y (lowest measured AR level normalized to DMSO control) of CCc1cc(N2C(=S)N(c3cnc(C#N)c(C(F)(F)F)c3)C(=O)C2(C)C)ccc1OCCC1CCN([C@H](C)C(=O)Nc2cc(C#N)cc(NC3CCC(=O)NC3=O)c2)CC1 (stereo partly drawn) , thanks.
Output line: ** (25%<Y<=35%)

* * *

- Target Or Test System: AR protein in VCaP cells (Homo sapiens, UniProt P10275)
- Construct: endogenous in cells; host or cells: VCaP cells
- Sequence (P10275 1-920): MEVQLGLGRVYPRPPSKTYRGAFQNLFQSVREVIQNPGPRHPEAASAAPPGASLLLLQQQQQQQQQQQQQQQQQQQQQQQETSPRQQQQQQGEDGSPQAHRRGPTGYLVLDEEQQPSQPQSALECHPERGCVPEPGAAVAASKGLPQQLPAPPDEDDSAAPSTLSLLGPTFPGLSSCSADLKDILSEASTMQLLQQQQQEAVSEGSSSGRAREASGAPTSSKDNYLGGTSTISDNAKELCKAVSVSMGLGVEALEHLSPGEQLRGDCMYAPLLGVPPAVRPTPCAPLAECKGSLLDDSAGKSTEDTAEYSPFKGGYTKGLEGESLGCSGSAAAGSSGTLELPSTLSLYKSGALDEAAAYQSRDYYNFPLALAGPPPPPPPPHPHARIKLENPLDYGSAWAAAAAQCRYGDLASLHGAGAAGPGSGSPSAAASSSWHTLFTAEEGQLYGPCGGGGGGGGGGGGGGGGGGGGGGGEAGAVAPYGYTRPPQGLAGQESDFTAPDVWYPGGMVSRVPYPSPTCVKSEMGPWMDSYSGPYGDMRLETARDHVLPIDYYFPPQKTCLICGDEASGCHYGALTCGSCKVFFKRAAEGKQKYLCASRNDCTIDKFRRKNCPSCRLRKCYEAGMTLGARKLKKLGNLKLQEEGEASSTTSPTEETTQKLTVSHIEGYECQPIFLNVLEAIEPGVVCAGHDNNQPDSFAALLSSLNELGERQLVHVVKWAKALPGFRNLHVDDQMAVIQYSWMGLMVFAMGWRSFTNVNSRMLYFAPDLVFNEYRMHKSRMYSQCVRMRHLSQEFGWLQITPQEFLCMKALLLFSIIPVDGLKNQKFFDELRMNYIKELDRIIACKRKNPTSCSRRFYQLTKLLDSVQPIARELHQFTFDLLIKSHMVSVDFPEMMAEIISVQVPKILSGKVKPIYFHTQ
- Protocol Notes: VCAP AR Degradation Assay (AR ELISA, 24 h)
- Assay type: cell-based
- Condition Set: AR degradation efficiency
Reported Endpoint: Y (lowest measured AR level normalized to DMSO control)

Compound | Result Value
CCc1cc(N2C(=S)N(c3ccc(C#N)c(C(F)(F)F)c3)C(=O)C23CCC3)ccc1OCCC1CCN([C@@H](C)C(=O)Nc2cc(NC3CCC(=O)NC3=O)ccc2F)CC1 (some centres unmarked) | ** (25%<Y<=35%)
CC(C)c1cc(N2C(=S)N(c3ccc(C#N)c(C(F)(F)F)c3)C(=O)C2(C)C)ccc1OCC[C@@H]1CCN(CC(=O)Nc2cccc(NC3CCC(=O)NC3=O)c2)[C@H](C)C1 (some centres unmarked) | ** (25%<Y<=35%)
CC1(C)C(=O)N(c2ccc(C#N)c(C(F)(F)F)c2)C(=S)N1c1ccc(OCCC2CCN(CC(=O)Nc3cc(Cl)cc(NC4CCC(=O)NC4=O)c3)CC2)c(CCF)c1 (centres unmarked) | * (0<Y<=25%)
CCc1cc(N2C(=S)N(c3cnc(C#N)c(C(F)(F)F)c3)C(=O)C2(C)C)ccc1OCCC1(C)CCN(CC(=O)Nc2cccc(NC3CCC(=O)NC3=O)c2)CC1 (centres unmarked) | * (0<Y<=25%)

Input line: Need Y (lowest measured AR level normalized to DMSO control) of CCc1cc(N2C(=S)N(c3ccc(C#N)c(C(F)(F)F)c3)C(=O)C2(C)C)ccc1OCCC1CCN([C@H](C)C(=O)Nc2cccc(NC3CCC(=O)NC3=O)c2)CC1 (some centres unmarked) , thanks.
Output line: ** (25%<Y<=35%)

* * *

- Target Or Test System: AR protein in VCaP cells (Homo sapiens)
- Construct: endogenous in cells; host or cells: VCaP cells
- Protocol Notes: VCAP AR Degradation Assay (AR ELISA, 24 h)
- Assay type: cell-based
- Condition Set: concentration of compound when AR level = 50% of DMSO control, read-out: DC50
DC50 listing for selected molecules.

Please review the entries below; each comes with its answer.
Molecule | Reported Endpoint | Result Value
CCc1cc(N2C(=S)N(c3cnc(C#N)c(C(F)(F)F)c3)C(=O)C2(C)C)ccc1OCCC1(C)CCN(CC(=O)Nc2cc(Cl)cc(NC3CCC(=O)NC3=O)c2)CC1 (centres unmarked) | DC50 | 100 to 500 nM
CCc1cc(N2C(=S)N(c3cnc(C#N)c(C(F)(F)F)c3)C(=O)C23CCC3)ccc1OCCC1CCN(CC(=O)Nc2cccc(NC3CCC(=O)NC3=O)c2)CC1 (centres unmarked) | DC50 | < 100 nM
CCc1cc(N2C(=S)N(c3cnc(C#N)c(C(F)(F)F)c3)C(=O)C2(C)C)ccc1OC1CCN(CC(=O)Nc2cccc(NC3CCC(=O)NC3=O)c2)CC1 (centres unmarked) | DC50 | < 100 nM

Input line: Need DC50 of CCc1cc(N2C(=S)N(c3cnc(C#N)c(C(F)(F)F)c3)C(=O)C2(C)C)ccc1OCC[C@H]1CCN(CC(=O)Nc2cccc(NC3CCC(=O)NC3=O)c2)[C@H](C)C1 (some centres unmarked) , thanks.
Output line: < 100 nM

Input line: Need DC50 of CCc1cc(N2C(=S)N(c3ccc(C#N)c(C(F)(F)F)c3)C(=O)C23CCC3)ccc1OCCC1CCN([C@@H](C)C(=O)Nc2cc(Cl)cc(NC3CCC(=O)NC3=O)c2)CC1 (some centres unmarked) , thanks.
Output line: 100 to 500 nM

* * *

- Target Or Test System: AR protein in VCaP cells (Homo sapiens, UniProt P10275)
- Construct: endogenous in cells; host or cells: VCaP cells
- Protocol Notes: VCAP AR Degradation Assay (AR ELISA, 24 h)
- Type: cell-based
- Condition Set: concentration of compound when AR level = 50% of DMSO control, read-out: DC50
Reported Endpoint: DC50

Please review the entries below; each comes with its answer.
Molecule | DC50
CCc1cc(N2C(=S)N(c3ccc(C#N)c(C(F)(F)F)c3)C(=O)C23CCC3)ccc1OCCC1CCN([C@@H](C)C(=O)Nc2cc(NC3CCC(=O)NC3=O)ccc2F)CC1 (some centres unmarked) [Cmpd 74] | 100 to 500 nM
CC1(C)C(=O)N(c2ccc(C#N)c(C(F)(F)F)c2)C(=S)N1c1ccc(OC2CCN(CC(=O)Nc3cccc(NC4CCC(=O)NC4=O)c3)CC2)c(F)c1 (centres unmarked) [Cmpd 1] | < 100 nM
CCc1cc(N2C(=S)N(c3cnc(C#N)c(C(F)(F)F)c3)C(=O)C2(C)C)ccc1OCC[C@@H]1CCN(CC(=O)Nc2cc(NC3CCC(=O)NC3=O)ccc2F)[C@H](C)C1 (some centres unmarked) [Cmpd 79] | 100 to 500 nM
CCc1cc(N2C(=S)N(c3cnc(C#N)c(C(F)(F)F)c3)C(=O)C23CCC3)ccc1OCCC1CCN(CC(=O)Nc2cc(Cl)cc(NC3CCC(=O)NC3=O)c2)CC1 (centres unmarked) [Cmpd 27] | < 100 nM

Input line: # returns recorded DC50 (system: AR protein in VCaP cells (Homo sapiens, UniProt P10275)) for CCc1cc(N2C(=S)N(c3cnc(C#N)c(C(F)(F)F)c3)C(=O)C2(C)C)ccc1OCCC1CCN(CC(=O)Nc2cc(C#N)cc(NC3CCC(=O)NC3=O)c2)CC1 (centres unmarked) [Cmpd 39]
Output line: < 100 nM

Input line: # returns recorded DC50 (system: AR protein in VCaP cells (Homo sapiens, UniProt P10275)) for CCc1cc(N2C(=S)N(c3ccc(C#N)c(C(F)(F)F)c3)C(=O)C2(C)C)ccc1OCCC1CCN(CC(=O)Nc2cccc(NC3CCC(=O)NC3=O)c2)CC1 (centres unmarked) [Cmpd 17]
Output line: < 100 nM

Input line: # returns recorded DC50 (system: AR protein in VCaP cells (Homo sapiens, UniProt P10275)) for CC1(C)C(=O)N(c2cnc(C#N)c(C(F)(F)F)c2)C(=S)N1c1ccc(OCC2CCN(CC(=O)Nc3cccc(NC4CCC(=O)NC4=O)c3)CC2)cc1 (centres unmarked) [Cmpd 6]
Output line: 100 to 500 nM

Input line: # returns recorded DC50 (system: AR protein in VCaP cells (Homo sapiens, UniProt P10275)) for CCc1cc(N2C(=S)N(c3cnc(C#N)c(C(F)(F)F)c3)C(=O)C2(C)C)ccc1OCCC1CCN([C@@H](C)C(=O)Nc2cccc(N[C@H]3CCC(=O)NC3=O)c2)CC1 [Cmpd 46]
Output line: < 100 nM

Input line: # returns recorded DC50 (system: AR protein in VCaP cells (Homo sapiens, UniProt P10275)) for CC(F)(F)c1cc(N2C(=S)N(c3cnc(C#N)c(C(F)(F)F)c3)C(=O)C2(C)C)ccc1OCCC1CCN(CC(=O)Nc2cc(Cl)cc(NC3CCC(=O)NC3=O)c2)CC1 (centres unmarked) [Cmpd 24]
Output line: 100 to 500 nM

Input line: # returns recorded DC50 (system: AR protein in VCaP cells (Homo sapiens, UniProt P10275)) for CCc1cc(N2C(=S)N(c3ccc(C#N)c(C(F)(F)F)c3)C(=O)C2(C)C)cnc1O[C@H]1C[C@@H](C)N(CC(=O)Nc2cccc(NC3CCC(=O)NC3=O)c2)[C@@H](C)C1 (some centres unmarked) [Cmpd 95]
Output line: 500 to 1000 nM

Input line: # returns recorded DC50 (system: AR protein in VCaP cells (Homo sapiens, UniProt P10275)) for CCc1cc(N2C(=S)N(c3cnc(C#N)c(C(F)(F)F)c3)C(=O)C2(C)C)ccc1OCCC1CCN([C@@H](C)C(=O)Nc2cc(C#N)cc(NC3CCC(=O)NC3=O)c2)CC1 (some centres unmarked) [Cmpd 37]
Output line: < 100 nM
